Biological target: UniProt:Q02769
Sequence (Q02769 1-416): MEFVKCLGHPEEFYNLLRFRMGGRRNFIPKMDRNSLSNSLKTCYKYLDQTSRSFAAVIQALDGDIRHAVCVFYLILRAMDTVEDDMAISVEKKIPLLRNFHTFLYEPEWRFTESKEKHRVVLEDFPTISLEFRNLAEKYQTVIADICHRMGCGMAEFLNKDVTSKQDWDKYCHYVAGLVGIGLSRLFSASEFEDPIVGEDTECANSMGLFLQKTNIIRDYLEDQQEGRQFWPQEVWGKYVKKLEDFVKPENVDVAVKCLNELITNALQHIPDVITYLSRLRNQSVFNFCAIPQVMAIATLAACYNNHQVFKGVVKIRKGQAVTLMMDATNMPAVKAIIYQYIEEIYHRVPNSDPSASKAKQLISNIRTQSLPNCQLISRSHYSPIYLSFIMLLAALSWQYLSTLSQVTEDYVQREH
readout.kind: IC50
Report as: number unit

Read off the recorded IC50 for `CO[C@@H]1CN(c2ccc(C#CC3(N)CCCCC3)c(Cc3ccccc3)n2)C[C@H]1O`
530 pM

All values here come from patent US7112593B2.
